Assay: Solubility in water and buffers
Assay type: physicochemical
Details: aqueous buffer; pH 9.0 buffer; * = estimated value; read-out: solubility pH 9.0 Buffer
REPORTED ENDPOINT: solubility

In plain terms, O=C(O)c1ccc(C[C@@]2(C3=Cc4ccccc4C3)Cc3ccccc3[C@H]2O)cc1 [Compound 6] has a documented solubility of > 3000 µg/mL

----------
Assay: Solubility in water and buffers
Format: physicochemical
Settings: Milli-RO water; * = estimated value; read-out: solubility Milli-RO H20
REPORTED ENDPOINT: solubility

In plain terms, O=C(O)c1ccc(C[C@@]2(C3=Cc4ccccc4C3)Cc3ccccc3[C@H]2O)cc1 [Compound 6] has a documented solubility of > 60 mg/mL
